Please consider the recorded IC50 for Dihydrofolate reductase (Mycobacterium avium, UniProt O30463) in what follows.
PARAMETER: IC50 (µM)

>>> reported_measurement("COc1ccc(COc2ccc(N3C(N)=NC(N)=NC3(C)C)cc2)cc1")
3.38
>>> reported_measurement("N=C(N)NC(=N)Nc1ccc(OCc2ccccc2)cc1")
132
>>> reported_measurement("COc1cccc(COc2ccc(NC(=N)NC(=N)N)cc2)c1")
15.5
>>> reported_measurement("CC1(C)N=C(N)N=C(N)N1c1ccc(OCc2ccc(-c3ccccc3)cc2)cc1")
10.2

----------
Observed IC50, system Dihydrofolate reductase (Pneumocystis carinii, UniProt P16184).
PARAMETER: IC50 (µM)

>>> reported_measurement("CC1(C)N=C(N)N=C(N)N1c1ccc(OCCCCN2C(=O)c3ccccc3C2=O)cc1")
2.61
>>> reported_measurement("NC(N)=N/C(N)=N/c1ccc(OCc2ccc(-c3ccccc3)cc2)cc1")
104
>>> reported_measurement("CC1(C)N=C(N)N=C(N)N1c1ccc(OCc2ccc(Cl)cc2Cl)cc1")
1.08
>>> reported_measurement("NC(N)=N/C(N)=N/c1ccc(OCc2cccc(Cl)c2)cc1")
104
>>> reported_measurement("CC1(C)N=C(N)N=C(N)N1c1ccc(OCC(O)CN2C(=O)c3ccccc3C2=O)cc1 (stereo unspecified)")
34.6
>>> reported_measurement("COc1ccc(COc2ccc(N3C(N)=NC(N)=NC3(C)C)cc2)cc1")
1.69
>>> reported_measurement("N=C(N)NC(=N)Nc1ccc(OCCN2C(=O)c3ccccc3C2=O)cc1")
51.4
>>> reported_measurement("N=C(N)NC(=N)Nc1ccc(OCCCN2C(=O)c3ccccc3C2=O)cc1")
106
>>> reported_measurement("CC1(C)N=C(N)N=C(N)N1c1ccc(OCCCN2C(=O)c3ccccc3C2=O)cc1")
6.49
>>> reported_measurement("N=C(N)NC(=N)Nc1ccc(OCc2ccccc2Cl)cc1")
293
>>> reported_measurement("COc1cccc(COc2ccc(NC(=N)NC(=N)N)cc2)c1")
15.5
